// data source = patent US9902725B2

For each of the molecules below, state its IC50.
measured_target: human RORγt (Homo sapiens, UniProt P51449)
Sequence (P51449 1-497 isoform P51449-2): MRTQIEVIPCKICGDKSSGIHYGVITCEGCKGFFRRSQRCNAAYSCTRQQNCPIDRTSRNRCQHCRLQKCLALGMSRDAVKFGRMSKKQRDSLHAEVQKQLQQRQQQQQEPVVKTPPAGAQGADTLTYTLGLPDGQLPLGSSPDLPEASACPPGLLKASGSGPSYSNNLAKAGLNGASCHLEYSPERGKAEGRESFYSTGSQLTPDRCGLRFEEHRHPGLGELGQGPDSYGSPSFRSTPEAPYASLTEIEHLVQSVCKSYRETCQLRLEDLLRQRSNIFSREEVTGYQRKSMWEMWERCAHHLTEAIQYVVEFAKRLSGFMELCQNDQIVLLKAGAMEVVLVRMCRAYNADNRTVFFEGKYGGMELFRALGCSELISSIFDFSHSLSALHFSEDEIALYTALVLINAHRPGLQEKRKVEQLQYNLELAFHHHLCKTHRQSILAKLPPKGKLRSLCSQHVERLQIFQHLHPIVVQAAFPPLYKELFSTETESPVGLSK
assay: IL-17 secretion from EL4 murine lymphoma overexpressing human RORγt
Assay type: cell-based
Set-up: expressed in transfected cells; host or cells: EL-4 murine lymphoma
measurement_context: IL-17 secretion inhibition, PMA and ionomycin stimulation, 24 h

-- ask Recall the recorded IC50 for Cc1ccc(C(NC(=O)Cc2ccc3[nH]cc(CCC(=O)O)c3c2)c2ccc(C)s2)c(N2CCCCC2)c1 (stereo not drawn) with human RORγt (Homo sapiens, UniProt P51449) and state it.
-- reply 1 to 10 µM

-- ask Recall the recorded IC50 for CC(C)(C)OC(=O)CCc1c[nH]c2ccc(CC(=O)NC(c3ccccc3)c3ccc(Cl)cc3N3CCCC3)cc12 (stereo not drawn) with human RORγt (Homo sapiens, UniProt P51449) and state it.
-- reply 10 to 30 µM

-- ask Recall the recorded IC50 for CC(C)Oc1ccc(C(NC(=O)Cc2ccc3[nH]cc(CCC(=O)O)c3c2)c2ccccc2)c(N2CCCCC2)c1 (stereo not drawn) with human RORγt (Homo sapiens, UniProt P51449) and state it.
-- reply 10 to 30 µM

-- ask Recall the recorded IC50 for COC(=O)Cc1c[nH]c2ccc(CC(=O)NC(c3ccccc3)c3ccc(C(F)(F)F)cc3N3CCCC3)cc12 (stereo not drawn) with human RORγt (Homo sapiens, UniProt P51449) and state it.
-- reply 1 to 10 µM

-- ask Recall the recorded IC50 for COc1ccc(N2CCCCC2)c(C(NC(=O)Cc2ccc3[nH]cc(CCC(=O)O)c3c2)c2ccccc2)c1 (stereo not drawn) with human RORγt (Homo sapiens, UniProt P51449) and state it.
-- reply 1 to 10 µM

-- ask Recall the recorded IC50 for COc1ccc(C(NC(=O)Cc2ccc3[nH]cc(CCC(=O)OC(C)(C)C)c3c2)c2ccccc2)c(N2CCCCCC2)c1 (stereo not drawn) with human RORγt (Homo sapiens, UniProt P51449) and state it.
-- reply 1 to 10 µM

-- ask Recall the recorded IC50 for Cc1ccc(C(NC(=O)Cc2ccc3[nH]cc(CCC(=O)OC(C)(C)C)c3c2)c2ccccc2)c(NC(C)C)c1 (stereo not drawn) with human RORγt (Homo sapiens, UniProt P51449) and state it.
-- reply 1 to 10 µM

-- ask Recall the recorded IC50 for Cc1cccc(C(NC(=O)Cc2ccc3[nH]cc(CCC(=O)O)c3c2)c2ccccc2)c1N1CCCCC1 (stereo not drawn) with human RORγt (Homo sapiens, UniProt P51449) and state it.
-- reply 1 to 10 µM

-- ask Recall the recorded IC50 for CC(C)(C)OC(=O)CCc1c[nH]c2ccc(CC(=O)NC(c3ccccc3)c3ccccc3N3CCCC3)cc12 (stereo not drawn) with human RORγt (Homo sapiens, UniProt P51449) and state it.
-- reply 1 to 10 µM

-- ask Recall the recorded IC50 for Cc1ccc(C(NC(=O)Cc2ccc3[nH]cc(CC(=O)N(C)C)c3c2)c2ccccc2)c(N2CCOCC2)c1 (stereo not drawn) with human RORγt (Homo sapiens, UniProt P51449) and state it.
-- reply 1 to 10 µM

-- ask Recall the recorded IC50 for COC(=O)Cc1c[nH]c2ccc(CC(=O)NC(c3ccccc3)c3ccc(Cl)cc3N3CCCC3)cc12 (stereo not drawn) with human RORγt (Homo sapiens, UniProt P51449) and state it.
-- reply 1 to 10 µM

-- ask Recall the recorded IC50 for Cc1ccc(C(NC(=O)Cc2ccc3[nH]cc(CCC(=O)O)c3c2)c2ccccc2)c(N2CCCC2)n1 (stereo not drawn) with human RORγt (Homo sapiens, UniProt P51449) and state it.
-- reply 10 to 30 µM
